test: Drug level in CD1 mouse plasma at 400 mg/kg, ip after 0.5 hrs by LC-MS/MS analysis; format: ADME, organism-based
Measure: concentration at 0.5 h (ng/mL)

# Chem smiles, Observed
records = [
    ("CC(C)CCNC1=CC(=O)c2ccccc2C1=O", 1260),
]

---

assay: Toxicity in Zebrafish; set-up: species or system Danio rerio; settings: in vivo, read-out: LD50 (the source's name)
LC50 overview
Measure: LC50 (µM)

# Compound, Readout qualifier, Observed
data = [
    ("CC1=CC(=O)c2ccccc2C1=O [MENADIONE]", "=", 6),
    ("C#CCNC1=CC(=O)c2ccccc2C1=O", ">", 20),
]
